Data origin: ChEMBL document CHEMBL1131981

pKi: −log10 of the molar value.
# collection of pKi values tested on D(3) dopamine receptor (Homo sapiens, UniProt P35462)
# Sequence (P35462 whole entry): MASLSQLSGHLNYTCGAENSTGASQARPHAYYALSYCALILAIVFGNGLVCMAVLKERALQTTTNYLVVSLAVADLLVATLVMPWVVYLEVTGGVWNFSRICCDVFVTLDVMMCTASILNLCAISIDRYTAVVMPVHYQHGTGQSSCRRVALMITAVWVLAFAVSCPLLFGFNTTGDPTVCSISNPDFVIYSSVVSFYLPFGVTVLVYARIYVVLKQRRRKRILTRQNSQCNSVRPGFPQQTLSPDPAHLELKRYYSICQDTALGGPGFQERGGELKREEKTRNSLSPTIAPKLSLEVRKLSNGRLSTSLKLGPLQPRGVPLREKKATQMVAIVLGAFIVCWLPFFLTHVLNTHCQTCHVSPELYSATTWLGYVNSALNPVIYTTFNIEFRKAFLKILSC
Assay Endpoint: pKi

Solved cases below.
[[record]]
compound = "CCCN1COC[C@@H]2c3cc(O)ccc3OC[C@H]21"
test_value = 7.60

[[record]]
compound = "CCCN(CCCCNC(=O)c1ccc(-c2ccccc2)cc1)C1CCc2nc(C)ncc2C1 (configuration not stated)"
test_value = 8.10


a: CCCN(CCCCNC(=O)c1ccc(-c2ccccc2)cc1)C1CCc2nc(N)sc2C1 (configuration not stated)
b: CCCN(CCCCNC(=O)c1ccc(-c2ccccc2)cc1)C1CCc2nc(C(C)(C)C)ncc2C1 (configuration not stated)
Task: Larger number for pKi: a , or b ? Give the chosen item's label as your response.
Output: a

a: CCCN(CCCCNC(=O)c1ccc(-c2ccccc2)cc1)C1CCc2nc(N(C)C)ncc2C1 (configuration not stated)
b: CCCN(CCCCNC(=O)c1ccc(-c2ccccc2)cc1)C1CCc2nc(NC)ncc2C1 (configuration not stated)
Task: Pick one, a or b : lowest reported pKi. Give the chosen item's label as your response.
Output: a
(a: 7.60, b: 7.80)

====

- Experimental Target: D(2) dopamine receptor (Homo sapiens)
- Sequence (P14416 whole entry): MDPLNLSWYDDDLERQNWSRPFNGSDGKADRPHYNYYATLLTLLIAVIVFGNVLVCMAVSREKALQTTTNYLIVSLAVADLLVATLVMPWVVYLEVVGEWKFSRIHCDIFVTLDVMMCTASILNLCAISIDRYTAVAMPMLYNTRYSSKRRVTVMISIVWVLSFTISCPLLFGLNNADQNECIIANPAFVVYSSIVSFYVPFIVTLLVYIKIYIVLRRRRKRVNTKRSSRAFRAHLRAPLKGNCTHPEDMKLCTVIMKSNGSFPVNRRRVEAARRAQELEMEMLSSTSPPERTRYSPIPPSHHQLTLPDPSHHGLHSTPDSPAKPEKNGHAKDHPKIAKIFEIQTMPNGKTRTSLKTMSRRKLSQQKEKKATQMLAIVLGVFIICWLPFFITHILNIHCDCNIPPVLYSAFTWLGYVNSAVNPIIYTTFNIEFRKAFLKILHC
- Assay Details: Tested for the ability to displace [125I]iodosulpiride from human cloned Dopamine receptor D2, expressed in CHO cells.
- Assay type: cell-based
Assay Endpoint: Ki (µM)

Solved cases below.
[[record]]
compound = "CCCN(CCCCNC(=O)c1ccc(-c2ccccc2)cc1)C1CCc2nc(C)ncc2C1 (stereo unspecified)"
test_value = 2.51

[[record]]
compound = "CCCN(CCCCNC(=O)c1ccc(-c2ccccc2)cc1)C1CCc2nc(N(C)C)ncc2C1 (stereo unspecified)"
test_value = 1.58

[[record]]
compound = "CCCN(CCCCNC(=O)c1ccc(-c2ccccc2)cc1)C1CCc2ncncc2C1 (stereo unspecified)"
test_value = 1.26

[[record]]
compound = "CCCN(CCCCNC(=O)c1ccc(-c2ccccc2)cc1)C1CCc2nc(C(C)(C)C)ncc2C1 (stereo unspecified)"
test_value = 1.58

[[record]]
compound = "CN(CCCCNC(=O)c1ccc(-c2ccccc2)cc1)C1CCc2nc(N)ncc2C1 (stereo unspecified)"
test_value = 1.58


a: CCCN(CCCCNC(=O)c1ccc(-c2ccccc2)cc1)C1CCc2ncnc(OC)c2C1 (stereo unspecified)
b: CCCN(CCCCNC(=O)c1ccc(-c2ccccc2)cc1)C1CCc2nc(N)sc2C1 (stereo unspecified)
c: CCCN(CCCCNC(=O)c1ccc(-c2ccccc2)cc1)C1CCc2nc(NC)ncc2C1 (stereo unspecified)
d: CCCN(CCCCNC(=O)c1ccc(-c2ccccc2)cc1)C1CCc2n[nH]cc2C1 (stereo unspecified)
Task: Endpoint returns the given compounds ordered by ascending Ki. Give the labels in the order requested.
Output: b, d, a, c

P: CCCN(CCCCNC(=O)c1ccc(-c2ccccc2)cc1)C1CCc2nc(SC)ncc2C1 (stereo unspecified)
Q: CCCN(CCCCNC(=O)c1ccc(-c2ccccc2)cc1)C1CCc2nc(N)ncc2C1 (stereo unspecified)
Task: Pick one, P or Q : lowest reported Ki. Give the chosen item's label as your response.
Output: Q
(Q: 0.158 µM, P: 1.26 µM)

====

- Experimental Target: D(3) dopamine receptor (Homo sapiens)
- Assay Details: Functional activity in vitro using microphysiometry at Dopamine receptor D3; Agonist
- Test Parameters: filed as agonist
Assay Endpoint: Function

Solved cases below.
[[record]]
compound = "CCCN(CCCCNC(=O)c1ccc(-c2ccccc2)cc1)C1CCc2nc(C)ncc2C1 (configuration not stated)"
experimental_target = "D(3) dopamine receptor (Homo sapiens)"
assay_endpoint = "Function"
test_value = "Agonist"

[[record]]
compound = "CCCN(CCCCNC(=O)c1ccc(-c2ccccc2)cc1)C1CCc2ncnc(OC)c2C1 (configuration not stated)"
experimental_target = "D(3) dopamine receptor (Homo sapiens)"
assay_endpoint = "Function"
test_value = "Agonist"

[[record]]
compound = "CCCN(CCCCNC(=O)c1ccc(-c2ccccc2)cc1)C1CCc2nc(N)sc2C1 (configuration not stated)"
experimental_target = "D(3) dopamine receptor (Homo sapiens)"
assay_endpoint = "Function"
test_value = "Agonist"

[[record]]
compound = "CCCN(CCCCNC(=O)c1ccc(-c2ccccc2)cc1)C1CCc2n[nH]cc2C1 (configuration not stated)"
experimental_target = "D(3) dopamine receptor (Homo sapiens)"
assay_endpoint = "Function"
test_value = "Agonist"

[[record]]
compound = "CCCN(CCCCNC(=O)c1ccc(-c2ccccc2)cc1)C1CCc2nc(NC)ncc2C1 (configuration not stated)"
experimental_target = "D(3) dopamine receptor (Homo sapiens)"
assay_endpoint = "Function"
test_value = "Agonist"

[[record]]
compound = "CN(CCCCNC(=O)c1ccc(-c2ccccc2)cc1)C1CCc2nc(N)ncc2C1 (configuration not stated)"
experimental_target = "D(3) dopamine receptor (Homo sapiens)"
assay_endpoint = "Function"
test_value = "Agonist"


Task: Read the entry CCCN(CCCCNC(=O)c1ccc(-c2ccccc2)cc1)C1CCc2nc(N)ncc2C1 (configuration not stated) and write its reported Function.
Output: Agonist
